- assay_comment: Solubility of sirolimus in aqueous media, solvents and benzyl benzoate/ethanol mixtures
- Type: physicochemical
- details: organic solvent or mixture; Ethanol (EtOH); ambient temperature; read-out: Solubility
measurement_name: solubility (mg/mL)
Quick note: give the figure in mg/mL, leave out the unit.

Query: solubility; subject: CO[C@H]1C[C@@H]2CC[C@@H](C)[C@@](O)(O2)C(=O)C(=O)N2CCCC[C@H]2C(=O)O[C@H]([C@H](C)C[C@@H]2CC[C@@H](O)[C@H](OC)C2)CC(=O)[C@H](C)/C=C(\C)[C@@H](O)[C@@H](OC)C(=O)[C@H](C)C[C@H](C)/C=C/C=C/C=C/1C 48.5
